Source listed as PubChem BioAssay (NCI).

Below, each of the compounds is paired with its reported growth value.
Test system: KM12 colon
Test: NCI-60 one-dose screen, 48 h (100 = growth as untreated, 0 = no growth, -100 = all killed)
Conditions: 10 µM unless noted
About 83,000 compounds went through this panel and 20% of them were active in at least one assay; those are over-represented in the sample as a whole.
Respond with the bare value in %.

In the examples that follow, each entry is paired with its recorded growth.
compound	growth [%]
COc1ccc(S(=O)(=O)N(Cc2ccc3c(c2)C=CC(C)(C)O3)c2ccccc2)cc1OC	88.7
O=C1CNC(c2ccccc2)c2cc(Cl)ccc2N1 (stereo not drawn)	91.2
ClCCN(CCCl)c1ccc(OCc2ccccc2)cc1	90.5

Task: With KM12 colon as the test system, provide measured growth for this compound: Nc1ccc(OCCNS(=O)(=O)c2cccc(S(=O)(=O)F)c2)c(Cl)c1
Output: 101

Task: With KM12 colon as the test system, provide measured growth for this compound: CC[CH2][Sn]([Cl])([Cl])[CH2]CC
Output: 101

Task: With KM12 colon as the test system, provide measured growth for this compound: CC1(C)N=C(N)N=C(N)N1c1ccc(OCCCNC(=O)Nc2ccc(S(=O)(=O)F)cc2)c(Cl)c1
Output: 22

Task: With KM12 colon as the test system, provide measured growth for this compound: CN(CCCCN(C)CCOS(C)(=O)=O)CCOS(C)(=O)=O
Output: 95.1

Task: With KM12 colon as the test system, provide measured growth for this compound: O=C1Nc2ccccc2C2c3cccn3-c3ccccc3CN12 (stereo not drawn)
Output: 30.3
